Quick reference for AVG A450 nm among some binders
assayed_target: T1, human c-Met ECD-Fc-Flis (human)
T1 construct: c-Met ECD fused to Fc with flag- and His-tag at the C-terminus; also called human c-Met extracellular domain (ECD)-Fc-Flis fusion; human c-Met-Flis-Fc ECD
T1 sequence (chain, as listed by the source): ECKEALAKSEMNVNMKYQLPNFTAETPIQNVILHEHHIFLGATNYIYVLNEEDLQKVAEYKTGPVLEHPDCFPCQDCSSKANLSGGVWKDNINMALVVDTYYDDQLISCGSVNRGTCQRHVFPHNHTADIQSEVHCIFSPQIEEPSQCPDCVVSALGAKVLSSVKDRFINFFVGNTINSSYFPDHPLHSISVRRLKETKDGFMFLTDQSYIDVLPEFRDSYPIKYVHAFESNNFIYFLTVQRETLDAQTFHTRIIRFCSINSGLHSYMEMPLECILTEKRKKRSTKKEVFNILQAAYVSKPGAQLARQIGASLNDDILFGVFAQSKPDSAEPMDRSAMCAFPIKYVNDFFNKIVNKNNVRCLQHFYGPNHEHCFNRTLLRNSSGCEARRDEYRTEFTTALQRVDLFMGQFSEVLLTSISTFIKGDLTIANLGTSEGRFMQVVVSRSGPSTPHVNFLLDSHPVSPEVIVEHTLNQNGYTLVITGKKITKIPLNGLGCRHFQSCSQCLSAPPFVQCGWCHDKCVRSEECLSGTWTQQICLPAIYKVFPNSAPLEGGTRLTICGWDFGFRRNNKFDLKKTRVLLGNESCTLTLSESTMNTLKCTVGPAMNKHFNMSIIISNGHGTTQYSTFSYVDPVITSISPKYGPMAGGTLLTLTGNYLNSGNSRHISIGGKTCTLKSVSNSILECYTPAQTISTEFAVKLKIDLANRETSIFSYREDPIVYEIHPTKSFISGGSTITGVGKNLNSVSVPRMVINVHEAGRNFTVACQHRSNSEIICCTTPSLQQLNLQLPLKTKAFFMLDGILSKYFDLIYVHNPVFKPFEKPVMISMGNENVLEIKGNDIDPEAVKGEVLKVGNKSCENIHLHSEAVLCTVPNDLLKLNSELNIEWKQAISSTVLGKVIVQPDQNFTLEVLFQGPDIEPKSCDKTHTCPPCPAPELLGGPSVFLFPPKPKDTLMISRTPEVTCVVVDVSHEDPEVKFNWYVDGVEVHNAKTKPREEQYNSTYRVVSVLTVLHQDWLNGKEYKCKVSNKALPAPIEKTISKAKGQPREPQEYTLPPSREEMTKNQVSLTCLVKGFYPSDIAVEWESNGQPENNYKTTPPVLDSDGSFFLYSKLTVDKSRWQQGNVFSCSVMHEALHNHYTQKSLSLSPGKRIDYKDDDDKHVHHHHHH
assay_overview: HGF-blocking ELISA: HGF signal on coated c-Met ECD-Fc-Flis; Ab 7.63 ng/mL
Text: […]
Please give a number only; it is taken to be in A450 nm.

- binder: "C8-6 (antibody, human IgG2, kappa, V domains shown, Named IgG4 kappa; also called C8-6 IgG4) VH: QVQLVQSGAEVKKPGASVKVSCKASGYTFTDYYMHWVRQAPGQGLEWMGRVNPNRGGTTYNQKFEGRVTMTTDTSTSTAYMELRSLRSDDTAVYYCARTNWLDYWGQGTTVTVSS VL: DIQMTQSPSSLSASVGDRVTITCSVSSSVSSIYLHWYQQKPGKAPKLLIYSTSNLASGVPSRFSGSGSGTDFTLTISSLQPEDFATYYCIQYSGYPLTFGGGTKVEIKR"
  measured_number: 2.64
- binder: "D11-C27G3 (antibody, human IgG2, kappa, V domains shown, Human engineered IgG2 kappa c-Met antibody; also called D11-27G3; D11-C27G3 IgG2) VH: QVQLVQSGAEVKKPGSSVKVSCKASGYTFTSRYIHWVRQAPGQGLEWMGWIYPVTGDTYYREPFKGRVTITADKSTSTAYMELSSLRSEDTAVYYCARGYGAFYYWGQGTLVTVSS VL: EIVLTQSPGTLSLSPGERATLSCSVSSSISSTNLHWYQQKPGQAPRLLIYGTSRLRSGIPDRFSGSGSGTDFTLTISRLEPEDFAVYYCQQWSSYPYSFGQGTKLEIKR"
  measured_number: 2.27

Query: Return AVG A450 nm for the following binder: D11-8B8 (antibody, human IgG2, kappa, V domains shown, Human engineered IgG2 kappa c-Met antibody; also called Mab D11-8B8; D11-8B8 IgG2) VH: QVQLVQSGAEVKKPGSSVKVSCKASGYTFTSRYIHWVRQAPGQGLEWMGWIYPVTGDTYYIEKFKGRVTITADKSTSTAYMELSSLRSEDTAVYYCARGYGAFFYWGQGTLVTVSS VL: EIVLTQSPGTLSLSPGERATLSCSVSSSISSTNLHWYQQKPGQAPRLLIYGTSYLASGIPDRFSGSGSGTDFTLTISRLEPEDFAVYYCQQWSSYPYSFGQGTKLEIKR
Result: 2.41
